- Tested on: WT Max(13-93) synthetic (M65Nle)
- Protocol: PBM 8-mer E-score (E-score (rank enrichment, -0.5 to 0.5)); higher = stronger preferential binding
Whole data set: some 33,000 sequences, median “E-score (rank enrichment, -0.5 to 0.5)” near -0.0075, cut for the highest 2% near 0.23. The full list was thinned out, with the highest values kept by preference.
param class (str): category from PBM 8-mer E-score; see ranges bucket A (below 0.03), bucket B (0.03 to below 0.2), bucket C (0.2 or more)

Item Sequence: TAAACATA
Target Entity: WT Max(13-93) synthetic (M65Nle)
Class Assignment: bucket C

Item Sequence: GCGTGGTA
Target Entity: WT Max(13-93) synthetic (M65Nle)
Class Assignment: bucket C

Item Sequence: GCGTTATA
Target Entity: WT Max(13-93) synthetic (M65Nle)
Class Assignment: bucket B

Item Sequence: ATGTAAAT
Target Entity: WT Max(13-93) synthetic (M65Nle)
Class Assignment: bucket C

Item Sequence: ACGTATTA
Target Entity: WT Max(13-93) synthetic (M65Nle)
Class Assignment: bucket B

input: Sort into band: GGTCCCAC
output: bucket A

input: Sort into band: AAGTACAA
output: bucket C

input: Sort into band: CATGCAGG
output: bucket B

FYI, the data here is from the supplement of paper PMC12636033.
